TEST_TARGET: CtPilB (Chloracidobacterium thermophilum, UniProt G2LDI3)
Sequence (G2LDI3 140-614): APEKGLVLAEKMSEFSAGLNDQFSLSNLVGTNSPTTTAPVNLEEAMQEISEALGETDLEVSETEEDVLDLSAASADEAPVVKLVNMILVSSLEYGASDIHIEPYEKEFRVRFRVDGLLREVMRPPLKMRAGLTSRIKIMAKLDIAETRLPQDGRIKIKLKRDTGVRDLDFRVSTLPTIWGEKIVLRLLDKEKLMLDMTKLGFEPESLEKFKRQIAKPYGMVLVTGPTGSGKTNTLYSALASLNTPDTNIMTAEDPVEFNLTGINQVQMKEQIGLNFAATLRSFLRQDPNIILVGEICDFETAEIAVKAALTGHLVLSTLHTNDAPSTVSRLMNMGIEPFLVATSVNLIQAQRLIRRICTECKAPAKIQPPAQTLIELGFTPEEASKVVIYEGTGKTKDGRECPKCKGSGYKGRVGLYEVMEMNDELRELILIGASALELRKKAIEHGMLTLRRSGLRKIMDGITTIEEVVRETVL
EXPERIMENTAL_PROTOCOL: CtPilB ATPase malachite green assay
Format: biochemical
EXPERIMENTAL_CONTEXT: read-out: % Inhib. 3 μM
MEASURED_PARAMETER: inhibition at 3 µM

> print(dat)
                                   compound  observed
1      N[C@H](CO)C(=O)N/N=C/c1ccc(O)c(O)c1O       35%
2  Cl.N[C@H](CS)C(=O)N/N=C/c1c(O)cccc1O [11c]       90%
3   C[C@@H](N)C(=O)N/N=C/c1c(O)cccc1O [11b]       26%

Items follow; give inhibition at 3 µM for each.
1. Cl.N[C@H](CO)C(=O)N/N=C/c1c(O)ccc(O)c1O
2. N[C@H](CO)C(=O)NNCc1cccc(O)c1O
3. N[C@H](CO)C(=O)NNCc1c(O)cccc1O
4. N[C@H](CO)C(=O)N/N=C/c1c(O)cccc1O
5. N[C@H](CO)C(=O)N/N=C/c1cc(O)ccc1O (mixture of isomers)
6. NC(CO)C(=O)NNCc1ccc(O)c(O)c1O (stereo not shown) [Benserazide, reference compound]
7. NCC(=O)N/N=C/c1c(O)cccc1O [11a]

**Result**
1. 71%
2. 19%
3. 32%
4. 65%
5. 40%
6. 34%
7. 55%
